Reference source: patent US20110053945A1

# experiment: Aqueous solubility, equilibrated 24 hour suspension of the salt in water, HPLC
# Format: physicochemical
# measurementContext: water, 24 hour at ambient
For each entry below, report its Solubility value.
Write the number in mgA/mL without appending the unit.

Lookup result for CN1CCN(C(=O)O[C@H]2c3nccnc3C(=O)N2c2ccc(Cl)cn2)CC1 [D-Malate, (S)-Zopiclone D-Malate] ; measured Solubility: 36

For record CN1CCN(C(=O)O[C@H]2c3nccnc3C(=O)N2c2ccc(Cl)cn2)CC1 [Succinate, (S)-Zopiclone Succinate] the listed Solubility is 100

Reported Solubility ( CN1CCN(C(=O)OC2c3nccnc3C(=O)N2c2ccc(Cl)cn2)CC1 (stereo in doubt) [(R)-Mandelate, (S)-Zopiclone (R)-Mandelate] ) = 25
